MEASURED ON: T1, Hse1, P38753
T1 sequence (P38753 208-285, looked up): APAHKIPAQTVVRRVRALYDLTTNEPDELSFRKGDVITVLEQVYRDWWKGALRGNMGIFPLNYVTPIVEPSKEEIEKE
ASSAY REMARKS: SPOT array
CONDITION DESCRIPTION: median of control spots 1727

{"columns": ["BINDER", "SPOT intensity"],
 "data": [
  ["ALFRLSFFFPLDPAY", 116],
  ["NNQRRKPLLLNIGDH", 50],
  ["HKVLRPFLLRRLKKD", 11],
  ["VTHRLRISIPGITGR", 5],
  ["DRIRMFIRFPKFLLE", 17],
  ["TKPTPPPKPSHLKPK", 11],
  ["PSRRAPLQLPQLVNK", 0],
  ["LEFRAILFIPKRAPF", 6],
  ["VLRFLGFPLPIFEKG", 6],
  ["RPVPRRPSQPLNTLS", 34],
  ["QHQQRQPKRPKRYSL", 33],
  ["IVNKPLPPLPVAGSS", 59],
  ["ITHRLRISIPGITGR", 11],
  ["PPIPNAPLSPAPAVP", 0],
  ["DLFKPLPEPPTELGR", 1],
  ["NVLRKILEIPLHSFS", 5],
  ["ISNFVPPNLPMRRFK", 72],
  ["RRSKSLPTTPGIRSG", 5],
  ["NMLSRPRLAKLPSIR", 216],
  ["DDEDVPPQLPTRTKS", 2],
  ["PLRRTVMSLPGNHDI", 1],
  ["SHRLWLYAAPKRPKT", 8],
  ["RVTRKRPREPKSTND", 12],
  ["MSPLGAPPPPPHKDH", 0],
  ["NLKKRPPTAPQRKIS", 157],
  ["FYHRPAPKPPVTKKV", 78],
  ["FYNRTAFQLPGDARV", 2],
  ["RTRRRPPPPPIPSTQ", 63],
  ["HHKRRPTTIDVPGLT", 3],
  ["AKDLIVPRRPEWNEG", 1130]
]}
